Molecular target: re-constituted (composite) NIA2 (Arabidopsis thaliana, UniProt P11035)
Construct: both from E. coli, IMAC purified; with Nitrate reductase [NADH]
Sequence (P11035 1-625): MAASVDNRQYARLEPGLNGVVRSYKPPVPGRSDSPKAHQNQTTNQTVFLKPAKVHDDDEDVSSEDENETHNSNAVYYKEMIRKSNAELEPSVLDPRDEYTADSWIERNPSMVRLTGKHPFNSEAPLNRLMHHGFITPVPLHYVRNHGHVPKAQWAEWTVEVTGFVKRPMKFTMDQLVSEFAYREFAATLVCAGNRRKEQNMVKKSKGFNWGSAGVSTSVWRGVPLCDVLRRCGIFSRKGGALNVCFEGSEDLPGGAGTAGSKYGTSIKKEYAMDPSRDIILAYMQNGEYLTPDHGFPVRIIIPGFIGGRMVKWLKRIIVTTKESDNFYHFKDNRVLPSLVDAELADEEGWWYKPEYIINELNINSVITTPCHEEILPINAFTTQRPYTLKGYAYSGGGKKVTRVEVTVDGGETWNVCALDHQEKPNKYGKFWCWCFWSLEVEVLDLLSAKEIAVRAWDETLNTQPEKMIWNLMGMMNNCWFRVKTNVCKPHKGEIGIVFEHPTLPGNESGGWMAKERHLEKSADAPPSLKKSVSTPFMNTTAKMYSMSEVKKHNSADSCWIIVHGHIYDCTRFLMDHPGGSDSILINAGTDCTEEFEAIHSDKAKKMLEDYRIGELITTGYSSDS
Sequence (P11035 626-917 partner): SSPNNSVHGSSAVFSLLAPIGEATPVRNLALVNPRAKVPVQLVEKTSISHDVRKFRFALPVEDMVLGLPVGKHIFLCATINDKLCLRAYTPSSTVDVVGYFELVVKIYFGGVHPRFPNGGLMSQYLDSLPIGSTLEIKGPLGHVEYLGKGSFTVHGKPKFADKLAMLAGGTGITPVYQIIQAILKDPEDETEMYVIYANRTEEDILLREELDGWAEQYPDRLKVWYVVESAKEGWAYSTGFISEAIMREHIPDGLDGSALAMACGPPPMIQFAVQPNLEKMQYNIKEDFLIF
Experiment: NO analyzer, inhibition of nitrite reduction (NO production)
reported_metric: IC50 (µM)
Quick note: give the figure in µM, leave out the unit.

I would be grateful if you could share the reported IC50 for O=[N+]([O-])O [nitrate] .
36

----------
Biological target: re-constituted (composite) NIA1 (Arabidopsis thaliana)
Construct: both from E. coli, IMAC purified; with Nitrate reductase [NADH]
Sequence (P11832 1-627): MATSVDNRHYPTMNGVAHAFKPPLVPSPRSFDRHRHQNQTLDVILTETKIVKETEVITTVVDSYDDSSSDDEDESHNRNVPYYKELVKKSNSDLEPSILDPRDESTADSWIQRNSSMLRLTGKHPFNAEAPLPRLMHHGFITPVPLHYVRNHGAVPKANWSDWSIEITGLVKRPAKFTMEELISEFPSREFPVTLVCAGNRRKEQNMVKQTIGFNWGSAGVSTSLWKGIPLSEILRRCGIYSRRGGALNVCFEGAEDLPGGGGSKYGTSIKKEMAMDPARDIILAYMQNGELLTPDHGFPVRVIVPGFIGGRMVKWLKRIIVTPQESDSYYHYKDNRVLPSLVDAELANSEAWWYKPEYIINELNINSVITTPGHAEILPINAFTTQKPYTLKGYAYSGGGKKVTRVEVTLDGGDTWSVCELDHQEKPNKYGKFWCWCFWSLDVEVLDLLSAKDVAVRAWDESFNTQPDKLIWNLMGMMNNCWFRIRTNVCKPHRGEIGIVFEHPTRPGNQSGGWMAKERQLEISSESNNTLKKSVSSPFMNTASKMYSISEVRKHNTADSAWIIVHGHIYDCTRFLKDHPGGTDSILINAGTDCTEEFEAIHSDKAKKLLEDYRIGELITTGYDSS
Sequence (P11832 628-917 partner): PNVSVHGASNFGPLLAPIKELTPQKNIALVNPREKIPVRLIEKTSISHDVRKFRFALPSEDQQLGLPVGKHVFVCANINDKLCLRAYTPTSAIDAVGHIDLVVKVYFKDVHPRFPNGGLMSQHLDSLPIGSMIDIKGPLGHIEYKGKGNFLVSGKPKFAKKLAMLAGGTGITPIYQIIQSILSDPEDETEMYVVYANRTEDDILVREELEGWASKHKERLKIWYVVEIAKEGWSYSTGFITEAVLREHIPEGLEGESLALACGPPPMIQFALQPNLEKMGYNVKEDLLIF
Test: NO analyzer, inhibition of nitrite reduction (NO production)
reported_metric: IC50 (µM)
Quick note: give the figure in µM, leave out the unit.

Form field: IC50 recorded for O=[N+]([O-])O [nitrate] with re-constituted (composite) NIA1 (Arabidopsis thaliana) (enter value)
12

Recorded values, source paper PMC6473903.
